Hello, the source for this data is PubChem BioAssay (NCI), in case you need it.

Tested on: T-47D breast
Experimental details: NCI tumour cell line growth inhibition, 48 h
Readout: TGI (µM)
Write it as a number; the unit µM goes unstated.

CO[C@H]1CC(O[C@@H]2/C(C)=C/C[C@@H]3C[C@@H](C[C@]4(CC[C@H](C)[C@@H](C5CCCCC5)O4)O3)OC(=O)[C@@H]3C=C(C)/C(=N/O)[C@H]4OC/C(=C\C=C\[C@@H]2C)[C@]43O)O[C@@H](C)C1O (some centres undefined): 3.09
O=C1/C(=C/c2ccc(Cl)cc2)CNC/C1=C\c1ccc(Cl)cc1: 36.1

Looking up COc1cccc(Nc2nc3ccccc3c3occc23)c1 , I see its TGI listed as 22.8

====

System: ACHN renal
Experimental details: NCI tumour cell line growth inhibition, 48 h
Readout: TGI

S=c1ncc2c([nH]1)C1c3ccccc3C2c2ccccc21: > 100 µM
Cc1cc(C)c(-c2noc(-c3ccc(Cl)cc3)c2C2=NCCCN2)c(C)c1: > 100 µM
COc1cc(OC)cc(-c2cc(=O)c3cc4c(cc3[nH]2)OCO4)c1: > 35.5 µM
O=[N+]([O-])c1ccc(-n2nc3ccc4c(no[n+]4[O-])c3n2)cc1: > 100 µM
Cc1ccc2c(=O)cc(-c3ccc4ccccc4c3)[nH]c2n1: > 100 µM
O=c1c(Cl)c(Cl)cnn1CCCl: 2.35 µM

Entry CN(C)c1c(C2OC(CO)C(O)C2O)c(=O)c1=O (stereo not given) ; assay system ACHN renal; TGI recorded at > 100 µM

Case Cc1cc(=O)n(-c2cc3cccccc-3n2)[nH]1 , ACHN renal, TGI recorded as 50.3 µM

Per the reported ACHN renal data, Cn1cc(-c2cnn3c(N)c(Br)c(C4CCCNC4)nc23)cn1 (stereo not given) has TGI of > 100 µM

CCCCCC/C=C\CCCCCCCCCC1=C(CN2CCN(C)CC2)C(=O)C=C(OC)C1=O tested on ACHN renal gave TGI: 13 µM

====

Tested on: SR leukemia
Experimental details: NCI tumour cell line growth inhibition, 48 h; in the data active = GI50 below about 0.43 µM; inactive = the rest
# valid calls are active, inactive; nothing else

Study these solved cases before continuing.
O=[N+]([O-])c1cc([N+](=O)[O-])c(Nn2c3ccccc3c3ccccc32)c([N+](=O)[O-])c1: active
Nc1nc(/C=C\c2ccccc2)nc(N2CCN(c3ccccc3)CC2)n1: inactive
CCN(Cc1cccc(Cl)c1)c1ccc(CO)c(Cl)c1: inactive

With those in mind, consider the next molecule.
Request: For COc1cc(C(=O)c2cnc(-c3cccc4[nH]ccc34)[nH]2)cc(OC)c1OC , what call appears in the results of this test?
Response: active

====

Tested on: SR leukemia
Experimental details: NCI tumour cell line growth inhibition, 48 h
Item-by-item account of TGI

Here's what some known entries look like.
CCOc1ccccc1N=Nc1c(-c2ccccc2)nn(C(=O)CC(=O)Nc2cccc(C)c2)c1-c1ccccc1: > 100 µM
Cn1cc(-c2cnn3c(N)c(Br)c(C4CCCNC4)nc23)cn1 (configuration not stated): 16.9 µM

// TGI lookup, molecule = Cn1c2c(c3ccccc31)CCN1C(=O)CCC21 (configuration not stated) , result: > 10 µM

Noted for CCOC(=O)C(C#N)C1=CC(=O)C(=O)c2ccc(O)cc21 (configuration not stated) : its TGI reads > 100 µM

====

Tested on: A498 renal
Experimental details: NCI tumour cell line growth inhibition, 48 h
Reported TGI values follow for various compounds
Entry rule: numbers only, all in µM.

Consider the following illustrative entries.
CC1=CC[C@@]2(C)CC[C@](O)(C(C)C)C2C(OC(=O)c2ccccc2)C1 (stereo not given in full): 50.8
CC[C@@H](C)/C=C(C)/C=C/C(=O)c1c(O)c(-c2ccc(O)cc2)cn(O)c1=O: 13.1
CCN(Cc1cccc(Cl)c1)c1ccc(CO)c(Cl)c1: 0.166

Please look at the following compound next.
Field TGI (entry COC(=O)[C@@H]1Cc2c([nH]c3ccccc23)[C@H](c2ccccc2)N1 ) reads 48.6
